tested on: NIM1; construct: gene MGC42105; conditions: concentration: 1 μM, replicates: in singlicate; n = 1;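 note: KINOMEscan kinase panel screen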
Rule: %Inh under 3% gives no, otherwise yes.

> print(dat)
                                   compound  discrete.label
1  COc1ccc(CSc2nnc(-c3ccc4ncsc4c3)o2)cc1C(F)(F)F              no
2  Cc1ccc(NC(=O)Nc2ccc(Cl)cc2)cc1-c1ccc(C(=O)Nc2ccncc2)cc1 [GSK1398472]             yes
3  Cc1cnc(N)c(/C=C/c2cncc(C(=O)NCCc3ccc(Cl)cc3Cl)c2)c1.Cl [GSK190937]             yes
4  Cc1ccc(NC(=O)Nc2ccc(Cl)c(C(F)(F)F)c2)cc1-c1ccc(C(=O)Nc2ccncc2)cc1 [GSK1398470]              no

Ask | Check if %Inh >= 3% (inclusive). Item: COc1ccc2cc(-c3nc(-c4ccccc4C(C)C)[nH]c3-c3ccncc3)ccc2c1 [SB-660566]
Reply | yes

Ask | Check if %Inh >= 3% (inclusive). Item: O=C1NC(=O)C(c2ccc(Cl)cc2)=C1Nc1cccc(Cl)c1 [SB-317651]
Reply | yes

Ask | Check if %Inh >= 3% (inclusive). Item: Fc1ccc(-c2nn3cccc(F)c3c2-c2ccncc2)cc1 [GW475620]
Reply | yes

----------
system: MLK3; conditions: concentration: 1 μM, replicates: in singlicate; n = 1
measured-parameter: %Inh (%)
Only the number, expressed in %, is required.

> print(dat)
                                   compound  readout.value
1  CC(=O)c1c(C)c2cnc(Nc3ccn(C)n3)nc2n(C2CCCC2)c1=O              0
2                         Cn1cnc2c(N)ncnc21              0
3  Cc1nccc(-c2c(-c3ccc(F)cc3)ncn2CCCN2CCOCC2)n1.Cl             25
4  Cl.Cl.Cl.N#Cc1ccc(CCNc2nccc(-c3cccc(CN4CCNCC4)c3)n2)cc1              0
5     Cc1ccccc1Cn1ccn2c(=O)cc(N3CCOCC3)nc12              3

Shifting focus to the compound that follows.
Ask | Complete the entry with %Inh for COC(=O)c1cccc(NC(=O)NC2CCN(c3ccnc(Nc4ccc(F)cc4)n3)C2)c1 (stereo not shown)
Reply | 0

----------
compounds and their reported %Inh
tested on: MYLK2; conditions: concentration: 1 μM, replicates: in singlicate; n = 1
Only the number, expressed in %, is required.

Examples from the recorded data:
> print(dat)
                                   compound  readout.value
1  COc1ccc2cc(-c3nc(-c4ccccc4C(C)C)[nH]c3-c3ccncc3)ccc2c1 [SB-660566]             15
2  COc1ccc(Nc2nccc(N3CCC(NC(=O)C(C)c4ccc(Cl)cc4)C3)n2)cc1 (centres unmarked) [GSK1379735]              3

Ask | Complete the entry with %Inh for CNCc1ccc2nc(NC(=O)c3ccc(C(C)(C)C)cc3)cn2c1
Reply | 7

Ask | Complete the entry with %Inh for O=c1cc(N2CCOCC2)nc2n(Cc3cccc(Cl)c3Cl)c3ccccc3n12 [GSK2299009]
Reply | 17

Ask | Complete the entry with %Inh for O=c1cc(N2CCOCC2)nc2n(Cc3ccccc3F)ccn12 [GSK2297428]
Reply | 0

Values from paper PMC5540273
